- TARGET ENTITY: T1, Abz-LPETGK(Dnp)-CONH2
- T1 chain: LPETGK
OUTCOME MEASURE: kcat/Km LPETG

{"PROTEIN": "P94S/D160N/D165A/K196T sortase A (protein) MQAKPQIPKDKSKVAGYIEIPDADIKEPVYPGPATSEQLNRGVSFAEENESLDDQNISIAGHTFIDRPNYQFTNLKAAKKGSMVYFKVGNETRKYKMTSIRNVKPTAVEVLDEQKGKDKQLTLITCDDYNEKTGVWETRKIFVATEVKLEHHHHHH", "MEASUREMENT": "28000 M⁻¹ s⁻¹"}
{"PROTEIN": "srtA P94S (protein) MQAKPQIPKDKSKVAGYIEIPDADIKEPVYPGPATSEQLNRGVSFAEENESLDDQNISIAGHTFIDRPNYQFTNLKAAKKGSMVYFKVGNETRKYKMTSIRDVKPTDVEVLDEQKGKDKQLTLITCDDYNEKTGVWEKRKIFVATEVKLEHHHHHH", "MEASUREMENT": "600 M⁻¹ s⁻¹"}
{"PROTEIN": "srtA K196T (protein) MQAKPQIPKDKSKVAGYIEIPDADIKEPVYPGPATPEQLNRGVSFAEENESLDDQNISIAGHTFIDRPNYQFTNLKAAKKGSMVYFKVGNETRKYKMTSIRDVKPTDVEVLDEQKGKDKQLTLITCDDYNEKTGVWETRKIFVATEVKLEHHHHHH", "MEASUREMENT": "400 M⁻¹ s⁻¹"}
{"PROTEIN": "srtA D160N (protein) MQAKPQIPKDKSKVAGYIEIPDADIKEPVYPGPATPEQLNRGVSFAEENESLDDQNISIAGHTFIDRPNYQFTNLKAAKKGSMVYFKVGNETRKYKMTSIRNVKPTDVEVLDEQKGKDKQLTLITCDDYNEKTGVWEKRKIFVATEVKLEHHHHHH", "MEASUREMENT": "600 M⁻¹ s⁻¹"}
{"PROTEIN": "wild type S. aureus sortase A (enzyme) MQAKPQIPKDKSKVAGYIEIPDADIKEPVYPGPATPEQLNRGVSFAEENESLDDQNISIAGHTFIDRPNYQFTNLKAAKKGSMVYFKVGNETRKYKMTSIRDVKPTDVEVLDEQKGKDKQLTLITCDDYNEKTGVWEKRKIFVATEVKLEHHHHHH", "MEASUREMENT": "200 M⁻¹ s⁻¹"}
